Task for the reader: assign each of the following compounds its reported IC50.
Test system: SW626
Test: Antiproliferative activity against human SW626 cells after 72 hrs by MTT assay
Type: functional, cell-based
Conditions: SW626, 72 h
Answers are plain numbers, in nM.

Cn1cc(Nc2nccc(-c3ccc4c(c3)C(=O)N(C(CO)c3cccc(Cl)c3)C4)n2)cn1 (stereo not given) :: 206
Cn1cc(Nc2nccc(-c3ccc4c(c3)C(=O)N(Cc3cccc(Cl)c3)C4)n2)cn1 :: 209
O=C1c2cc(-c3ccnc(NC4CCOCC4)n3)ccc2CN1C(CO)c1cccc(Cl)c1 (stereo not given) :: 247

Please go through the list and note IC50 for each compound.
1. O=C1c2cc(-c3ccnc(NC4CCOCC4)n3)ccc2CN1Cc1cccc(Cl)c1
2. Cn1nccc1Nc1nccc(-c2ccc3c(c2)C(=O)N(C(CO)c2cccc(Cl)c2)C3)n1 (stereo not given)

Solution:
1. 255
2. 252
